# system.name: human NK1 receptor (Homo sapiens, UniProt P25103)
# Sequence (P25103 whole entry): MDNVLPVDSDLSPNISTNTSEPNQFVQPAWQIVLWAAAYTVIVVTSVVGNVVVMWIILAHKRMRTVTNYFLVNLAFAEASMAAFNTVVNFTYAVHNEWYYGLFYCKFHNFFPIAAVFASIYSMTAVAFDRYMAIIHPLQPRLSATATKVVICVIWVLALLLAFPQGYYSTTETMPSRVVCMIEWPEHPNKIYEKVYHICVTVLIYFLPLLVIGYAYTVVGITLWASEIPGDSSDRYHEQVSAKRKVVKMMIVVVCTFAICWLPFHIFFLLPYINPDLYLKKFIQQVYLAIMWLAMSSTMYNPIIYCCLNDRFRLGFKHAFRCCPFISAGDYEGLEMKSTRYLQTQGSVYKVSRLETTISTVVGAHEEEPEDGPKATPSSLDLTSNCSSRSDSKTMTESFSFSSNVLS
# test.summary: SP Receptor Binding Assay (Test A)
# conditions.used: human NK1 receptor in MEL cells

| compound | system.name | Ki (nM) |
| --- | --- | --- |
| CC(=O)NC1(c2ccccc2)CCN(CCC(OC(=O)NCc2ccccc2)c2ccc(Cl)c(Cl)c2)CC1 (stereo not shown) | human NK1 receptor (Homo sapiens, UniProt P25103) | 163 |
